System: HIV
TEST_DETAILS: microbe, parasite or virus in culture
Type: cell-based
ASSAY_CONDITIONS: Human immunodeficiency virus 1, PANEL 46, D67N + K70E
pIC50 overview
Please note pIC50 is a logarithmic value: minus log10 of concentration in mol/L. Answer with that number alone.

Previously resolved entries follow.
[
  {
    "MOLECULE": "CCCCCCCCCCCCCCCCOCCCOP(=O)(O)CO[C@H](C)Cn1cnc2c(N)ncnc21 [CMX157]",
    "TARGET": "HIV",
    "ASSAY_RESULT": 8.67
  },
  {
    "MOLECULE": "OC[C@@H]1CC[C@H](n2cnc3c(O)ncnc32)O1 [ddI, 2′,3′-dideoxyinosine]",
    "TARGET": "HIV",
    "ASSAY_RESULT": 5.11
  },
  {
    "MOLECULE": "Cc1cn([C@H]2C[C@H](N=[N+]=[N-])[C@@H](CO)O2)c(=O)[nH]c1=O [ZDV, 3′-azido-2′,3′-dideoxythymdine]",
    "TARGET": "HIV",
    "ASSAY_RESULT": 8.22
  }
]

# context switch: different molecule, same pIC50
Prompt line: # input molecule: Nc1ccn([C@@H]2CS[C@H](CO)O2)c(=O)n1 [3TC] ; wanted: its pIC50
Response line: 4.97
